Target: human 11-β-HSD-1 (Homo sapiens, UniProt P28845)
Sequence (P28845 whole entry): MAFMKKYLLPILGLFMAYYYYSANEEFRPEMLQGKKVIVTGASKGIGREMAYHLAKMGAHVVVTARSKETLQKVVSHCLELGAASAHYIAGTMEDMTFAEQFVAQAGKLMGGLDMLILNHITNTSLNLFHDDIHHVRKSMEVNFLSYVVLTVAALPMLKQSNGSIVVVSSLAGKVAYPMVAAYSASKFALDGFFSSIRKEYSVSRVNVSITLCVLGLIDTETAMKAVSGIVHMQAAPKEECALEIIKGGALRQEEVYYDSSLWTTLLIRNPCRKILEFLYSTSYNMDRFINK
Test: Inhibition of 11-β-HSD-1 enzyme assay (HTRF Cortisol), human recombinant enzyme
Details: human recombinant enzyme from E. coli; cortisone/NADPH 200 nM/200 μM
Known IC50 of a selection of compounds
value.type: IC50 (nM)

compound | value.type | unit | value.observed
COc1ccc(CNC(=O)N2CCC(c3nc(C(=O)N4CCCC5CCCCC54)cs3)CC2)cc1 (centres unmarked) | IC50 | nM | 53
O=C(c1csc(C2CCN(S(=O)(=O)c3cccs3)CC2)n1)N(C1CCCCC1)C1CC1 | IC50 | nM | 720
CC(C)(C)CC(=O)N1CCC(c2nc(C(=O)N3CCCC4CCCCC43)cs2)CC1 (centres unmarked) | IC50 | nM | 92
COc1ccc(S(=O)(=O)N2CCC(c3nc(C(=O)N(C4CCCCC4)C4CC4)cs3)CC2)cc1 | IC50 | nM | 280
O=C(C1CCCCC1)N1CCC(c2nc(C(=O)N3CCCC4CCCCC43)cs2)CC1 (centres unmarked) | IC50 | nM | 200

---

Target: human 11-β-HSD-1 (Homo sapiens)
Assay: Inhibition of 11-β-HSD-1 enzyme assay (HTRF Cortisol), human recombinant enzyme
Details: human recombinant enzyme from E. coli; cortisone/NADPH 200 nM/200 μM
pIC50: −log10 of the molar value.
Hi, to clarify the labels: true covers pIC50 from 7 upward, false covers anything below 7.

compound | class
CCC(C)NC(=O)N1CCC(c2nc(C(=O)N3CCCC4CCCCC43)cs2)CC1 (centres unmarked) | false
O=C(c1csc(C2CCN(S(=O)(=O)CCc3ccncc3)CC2)n1)N(C1CCCCC1)C1CC1 | false
O=C(c1csc(C2CCNCC2)n1)N(C1CCCCC1)C1CC1 | false
O=C(CCC1CCCC1)N1CCC(c2nc(C(=O)N(C3CCCCC3)C3CC3)cs2)CC1 | false
CCCCCNC(=O)N1CCC(c2nc(C(=O)N3CCCC4CCCCC43)cs2)CC1 (centres unmarked) | false
O=C(c1csc(C2CCN(S(=O)(=O)C(F)(F)F)CC2)n1)N1CCCC2CCCCC21 (centres unmarked) | true

---

These records show pIC50 for mouse 11-β-HSD-1 (Mus musculus, UniProt P50172).
pIC50: −log10 of the molar value.

compound | tgt | pIC50
O=C(c1csc(C2CCN(S(=O)(=O)C(F)(F)F)CC2)n1)N1CCCC2CCCCC21 (stereo not drawn) [Compound 4.1] | mouse 11-β-HSD-1 (Mus musculus, UniProt P50172) | 6.48
O=C(CCC1CCCC1)N1CCC(c2nc(C(=O)N(C3CCCCC3)C3CC3)cs2)CC1 [Compound 2.7] | mouse 11-β-HSD-1 (Mus musculus, UniProt P50172) | 6.20
CCC(C)NC(=O)N1CCC(c2nc(C(=O)N3CCCC4CCCCC43)cs2)CC1 (stereo not drawn) [Compound 3.1] | mouse 11-β-HSD-1 (Mus musculus, UniProt P50172) | 6.33
O=C(c1csc(C2CCNCC2)n1)N(C1CCCCC1)C1CC1 [Compound 1.1] | mouse 11-β-HSD-1 (Mus musculus, UniProt P50172) | 6.54
O=C(C1CCCCC1)N1CCC(c2nc(C(=O)N3CCCC4CCCCC43)cs2)CC1 (stereo not drawn) [Compound 2.17] | mouse 11-β-HSD-1 (Mus musculus, UniProt P50172) | 6.47
COc1ccc(S(=O)(=O)N2CCC(c3nc(C(=O)N(C4CCCCC4)C4CC4)cs3)CC2)cc1 [Compound 4.20] | mouse 11-β-HSD-1 (Mus musculus, UniProt P50172) | 6.00
